A collection of binders and their measured functional reporter gene assay (% inhibition), 5 µg/mL mAb
- experimental-system: T1, human IL-1RAcP on 293T/17-FR cells (human, UniProt Q9NPH3 21-570)
- T1 sequence (looked up): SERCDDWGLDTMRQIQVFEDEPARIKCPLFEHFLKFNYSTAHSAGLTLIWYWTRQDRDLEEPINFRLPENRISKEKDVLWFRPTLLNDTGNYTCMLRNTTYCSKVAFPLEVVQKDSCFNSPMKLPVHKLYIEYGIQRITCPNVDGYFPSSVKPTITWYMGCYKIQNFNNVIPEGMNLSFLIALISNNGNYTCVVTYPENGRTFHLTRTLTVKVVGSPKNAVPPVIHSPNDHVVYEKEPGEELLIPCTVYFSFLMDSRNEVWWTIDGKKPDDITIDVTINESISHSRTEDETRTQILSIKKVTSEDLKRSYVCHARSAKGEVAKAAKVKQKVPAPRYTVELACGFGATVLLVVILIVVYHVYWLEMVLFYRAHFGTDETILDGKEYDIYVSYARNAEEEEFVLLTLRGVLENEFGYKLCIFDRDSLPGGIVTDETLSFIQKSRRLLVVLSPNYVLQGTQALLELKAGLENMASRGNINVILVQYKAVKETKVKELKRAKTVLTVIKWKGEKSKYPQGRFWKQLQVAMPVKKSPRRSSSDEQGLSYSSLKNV
- protocol: cell-based or functional assay
measured-quantity: functional reporter gene assay (% inhibition), 5 µg/mL mAb

| binder | readout-value |
| --- | --- |
| P013.S.01.B.F06 (antibody, V domains shown, rabbit monoclonal antibody; also called P013.A.00045.E09) VH: QSVEESGGRLVTPGTPLTLTCTVSGIDLSSDAVGWVRQAPGKGLEYIGIIVSSGETFYASWARGRCTISKTSSTTVDLRITRLTTEDTATYFCARGGPGYSFDTEYAFDPWGPGTLVTVSS VL: AFEMTQTPASVEVAVGGTVTINCQASQSIGSWLSWYQQKVGQRPKLLISRASTLASGVPSRFKGSGSGTEYTLTISGVQSDDAATFYCQQGATTYDVDNVFGGGTEVVVR | 70% |
| P013.S.01.B.H03 (antibody, V domains shown, rabbit monoclonal antibody; also called P013.A.00045.A02) VH: QSVEESGGRLVTPGTPLTLTCTVSGFSLSSYYMSWVRQAPGKGLEWIGYIYAAGPITYYATWAKGRFTISKTSTTVDLKITSPTTEDTATYFCVRDGSGSGTYGYNGMDLWGPGTLVTVSS VL: AYDMTQTPASVEAAVGGTVNIKCQASQSISNWLAWYQQKPGQPPKLLIYRASTLASGVSSRFKGSGSGTQFTLTISGVESADAATYYCQQGASTTDVDNVFGGGTEVVVK | 60% |
| P013.S.01.B.A04 (antibody, V domains shown, rabbit monoclonal antibody; also called P013.A.00085.C03) VH: QEQLEESGGGLVKPGGTLTLTCKASGIDFSSYYYMCWVRQAPGKGLEWIACIFIGYGDVTWYASWAKGRFTISKASSTTVTLQMTSLTAADTATYFCARALGSSGYRVNLWGPGTLVTVSS VL: ALVMTQTPSSVSAAVGGTVTINCQASENIYSSLAWYQQKPGQPPKLLIYDASDLASGVPSRFKGSGSGKEFTLTISDLESDDAATYYCQQGYYSGGTDNDVFGGGTEVVVK | 98% |
| P013.S.02.B.E02 (antibody, V domains shown, rabbit monoclonal antibody; also called P013.A.00087.E09) VH: QSVEESGGRLVTPGTPLTLTCTVSGFSLNVYNMGWVRQAPGKGLEYIGIISSSGTTYYASWAKGRFTISKTSSTTVDLKITSLTTEDTATYFCARADGYTEGDYATYFNLWGQGTLVTVSS VL: DIVMTQTPASVSEPVGGTVTIKCQASQSITTWLAWYQQKPGQPPKLLIYQASALASGVSSRFIGSGYGTEFTLTISGVQSEDAATYYCQCTYGIGSGSSYGVAFGGGTEVVVK | 68% |
| P013.S.02.B.H02 (antibody, V domains shown, rabbit monoclonal antibody; also called P013.A.00015.B10) VH: QSLEESGGRLVTPGTPLTLTCTVSGFSLSSCAMIWVRQAPGKGLEWIGFIGRGGSTWYASWVNGRFTISKTSTTVDLKITSPTTEDTATYFCARDGDFSDYYTFNLWGQGTLVTVSS VL: DVVMTQTPASVSEPVGGTVTIKCQASQNIGSNLAWYQQKPGQPPKLLIYGASTLASGVPSRFSGSGSGTEFTLTISGVQSADATTYYCQCSGYDTTGVFPFGGGSEVVVR | 28% |
